# Solubility (%) annotations
# Type: physicochemical
# test-conditions: 4320 min
// units = %; emit number, no label

[
  {
    "compound": "CCOCCOC(=O)c1ccc(OS(=O)(=O)C2=CC(=[N+]=[N-])C(=O)c3ccccc32)c(OS(=O)(=O)C2=CC(=[N+]=[N-])C(=O)c3ccccc32)c1",
    "unit-tag": "%",
    "quantitative-result": 3.7
  }
]

[in] What does the data say about its Solubility (%)? Entry: `CCCCCCCCCCCCOC(=O)c1ccc(OS(=O)(=O)c2cccc3c2C=CC(=[N+]=[N-])C3=O)cc1OS(=O)(=O)c1cccc2c1C=CC(=[N+]=[N-])C2=O`
[out] 7.5

[in] What does the data say about its Solubility (%)? Entry: `CCOCCOC(=O)c1ccc(OS(=O)(=O)c2cccc3c2C=CC(=[N+]=[N-])C3=O)c(OS(=O)(=O)c2cccc3c2C=CC(=[N+]=[N-])C3=O)c1`
[out] 4.3

[in] What does the data say about its Solubility (%)? Entry: [N-]=[N+]=C1C=Cc2c(cccc2S(=O)(=O)Oc2ccc(C(=O)c3ccccc3)c(OS(=O)(=O)c3cccc4c3C=CC(=[N+]=[N-])C4=O)c2OS(=O)(=O)c2cccc3c2C=CC(=[N+]=[N-])C3=O)C1=O [V, reference compound]
[out] 1.0
